tested on: Escherichia coli TOP10; experiment: shrunken log2 fold change of peptide-encoding DNA abundance (4.5 h post-induction vs induction); higher = less antimicrobial activity (less host growth inhibition); conditions: time post-induction: 4.5 h; library: site-saturation at positions 5, 18, 19, 20
Would you please tag the item criterion met when its shrunken log2 fold change is 0.09 or above, and criterion not met when it is below?

Reference set (3 entries):
- Primary Sequence: "RRIRNRPPRLPRPRPRPLDDPRP"
  Group: "criterion not met"
- Primary Sequence: "RRIRQRPPRLPRPRPRPFITPRP"
  Group: "criterion not met"
- Primary Sequence: "RRIRVRPPRLPRPRPRPDQLPRP"
  Group: "criterion met"

Decide: is the reported value of shrunken log2 fold change for RRIRDRPPRLPRPRPRPDRSPRP equal to or greater than 0.09?
criterion met

Decide: is the reported value of shrunken log2 fold change for RRIRARPPRLPRPRPRPNDPPRP equal to or greater than 0.09?
criterion met

Decide: is the reported value of shrunken log2 fold change for RRIRMRPPRLPRPRPRPHRTPRP equal to or greater than 0.09?
criterion not met

----------
test system: Escherichia coli TOP10; assay: shrunken log2 fold change of peptide-encoding DNA abundance (4.5 h post-induction vs induction); higher = less antimicrobial activity (less host growth inhibition); details: time post-induction: 4.5 h; library: site-saturation at positions 5, 18, 19, 20
I'd appreciate it if you could label each record using shrunken log2 fold change and these ranges: bucket 1: < -0.2; bucket 2: ≥ -0.2 and < 0.02; bucket 3: ≥ 0.02

- Primary Sequence: "RRIRYRPPRLPRPRPRPTEWPRP"
  Measurement Target: "Escherichia coli TOP10"
  Group: "bucket 2"

Could you now consider this next sequence?
Please let me know in which category the item RRIRLRPPRLPRPRPRPFGPPRP belongs.
bucket 3

----------
test system: Escherichia coli TOP10; experiment: shrunken log2 fold change of peptide-encoding DNA abundance (4.5 h post-induction vs induction); higher = less antimicrobial activity (less host growth inhibition); details: time post-induction: 4.5 h; library: site-saturation at positions 5, 18, 19, 20
Recorded Metric: shrunken log2 fold change
I only need the number, thanks.

- Primary Sequence: "RRIRDRPPRLPRPRPRPQWHPRP"
  Recorded Metric: "shrunken log2 fold change"
  Result: -0.292
- Primary Sequence: "RRIRERPPRLPRPRPRPTGTPRP"
  Recorded Metric: "shrunken log2 fold change"
  Result: -0.0482
- Primary Sequence: "RRIRSRPPRLPRPRPRPLFWPRP"
  Recorded Metric: "shrunken log2 fold change"
  Result: 0.132

Value of shrunken log2 fold change reported for the sequence RRIRSRPPRLPRPRPRPCVHPRP is -0.471

Value of shrunken log2 fold change reported for the sequence RRIRARPPRLPRPRPRPGPAPRP is 0.873

Value of shrunken log2 fold change reported for the sequence RRIRQRPPRLPRPRPRPCMVPRP is -0.0725

Value of shrunken log2 fold change reported for the sequence RRIRVRPPRLPRPRPRPGDTPRP is -0.0412

----------
test system: Escherichia coli TOP10; experiment: shrunken log2 fold change of peptide-encoding DNA abundance (4.5 h post-induction vs induction); higher = less antimicrobial activity (less host growth inhibition); conditions: time post-induction: 4.5 h; library: site-saturation at positions 5, 18, 19, 20;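 also: peptides expressed intracellularly from a pBAD plasmid library in pooled LB shake-flask culture, induced with 0.3% L-arabinose, DNA abundance read by NGS, three biological replicates, DESeq2 with apeglm shrinkage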
Would you please tag the item rule met when its shrunken log2 fold change is -0.03 or above, and rule not met when it is below?

Reference set (3 entries):
- Primary Sequence: "RRIRVRPPRLPRPRPRPTKHPRP"
  Group: "rule not met"
- Primary Sequence: "RRIRCRPPRLPRPRPRPWHWPRP"
  Group: "rule met"
- Primary Sequence: "RRIRTRPPRLPRPRPRPLAMPRP"
  Group: "rule met"

Decide: is the reported value of shrunken log2 fold change for RRIRWRPPRLPRPRPRPGQNPRP equal to or greater than -0.03?
rule met

Decide: is the reported value of shrunken log2 fold change for RRIRVRPPRLPRPRPRPVGLPRP equal to or greater than -0.03?
rule met

Decide: is the reported value of shrunken log2 fold change for RRIRGRPPRLPRPRPRPSSVPRP equal to or greater than -0.03?
rule met

Decide: is the reported value of shrunken log2 fold change for RRIRKRPPRLPRPRPRPTCLPRP equal to or greater than -0.03?
rule met

Decide: is the reported value of shrunken log2 fold change for RRIRKRPPRLPRPRPRPSPPPRP equal to or greater than -0.03?
rule met
